System: COLO-668 (Small Cell Lung Carcinoma)
PROTOCOL_DETAILS: combination Emax (second highest fraction inhibited in the dose matrix, 72 h); higher = more inhibition; extreme values may be limits of the assay
# combination Emax per entry
READOUT_TYPE: combination Emax

| COMPOUND | VALUE |
| --- | --- |
| C=CCn1c(=O)c2cnc(Nc3ccc(N4CCN(C)CC4)cc3)nc2n1-c1cccc(C(C)(C)O)n1 [AZD1775] + Nc1ccn([C@@H]2O[C@H](CO)[C@@H](O)C2(F)F)c(=O)n1 [Gemcitabine] (first compound max 1 µM, partner max 0.3 µM) | 0.738 |
| Cn1cnc2c(F)c(Nc3ccc(Br)cc3Cl)c(C(=O)NOCCO)cc21 [Selumetinib] + C[C@@H]1COCCN1C2=NC(=NC(=C2)C3(CC3)[S@](=N)(=O)C)C4=C5C=CNC5=NC=C4 [AZD6738] (first compound max 10 µM, 7x7, partner max 10 µM) | 0.735 |
| Cn1cnc2c(F)c(Nc3ccc(Br)cc3Cl)c(C(=O)NOCCO)cc21 [Selumetinib] + CCN(CCO)CCCOc1ccc2c(Nc3cc(CC(=O)Nc4cccc(F)c4)[nH]n3)ncnc2c1 [AZD2811] (first compound max 10 µM, 7x7, partner max 1 µM) | 0.407 |
| NC1(C(=O)N[C@@H](CCO)c2ccc(Cl)cc2)CCN(c2ncnc3[nH]ccc23)CC1 [Capivasertib] + CCN(CCO)CCCOc1ccc2c(Nc3cc(CC(=O)Nc4cccc(F)c4)[nH]n3)ncnc2c1 [AZD2811] (first compound max 10 µM, 7x7, partner max 1 µM) | 0.454 |
